# assayed system: Trib2-Luciferase (Luc-Trib2) fusion (Homo sapiens)
# Sequence (Q92519 with tags, fused parts or gaps): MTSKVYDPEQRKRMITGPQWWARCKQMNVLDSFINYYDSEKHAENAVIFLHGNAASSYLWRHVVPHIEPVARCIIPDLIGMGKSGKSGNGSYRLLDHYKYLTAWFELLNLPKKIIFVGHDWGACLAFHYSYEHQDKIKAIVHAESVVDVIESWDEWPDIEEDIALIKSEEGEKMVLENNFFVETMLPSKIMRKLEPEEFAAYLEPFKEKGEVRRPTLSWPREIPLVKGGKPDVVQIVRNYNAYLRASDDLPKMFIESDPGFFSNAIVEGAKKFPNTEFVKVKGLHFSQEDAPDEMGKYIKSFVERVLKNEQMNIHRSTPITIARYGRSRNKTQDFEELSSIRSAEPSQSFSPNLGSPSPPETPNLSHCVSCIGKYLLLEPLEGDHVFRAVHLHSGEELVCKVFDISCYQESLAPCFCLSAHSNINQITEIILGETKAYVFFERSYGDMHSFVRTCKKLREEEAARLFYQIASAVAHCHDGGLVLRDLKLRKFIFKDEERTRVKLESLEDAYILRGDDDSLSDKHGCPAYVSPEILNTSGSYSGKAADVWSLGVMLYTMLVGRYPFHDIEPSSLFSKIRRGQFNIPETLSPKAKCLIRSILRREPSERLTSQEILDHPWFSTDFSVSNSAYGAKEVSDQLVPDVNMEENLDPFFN
# protocol notes: cell-based
# details: HFF, read-out: Luciferase activity (%)
Field: activity at 10 µM. Provide a value for each of the molecules that follow.
All answers are understood in %, so give the number only.

Q. Need activity at 10 µM, item CC(=O)OCC(=O)[C@@]12OC(C)(C)O[C@@H]1C[C@H]1[C@@H]3C[C@H](F)C4=CC(=O)C=C[C@]4(C)[C@@]3(F)[C@@H](O)C[C@@]12C [Fluocinonide]
A. 78

Q. Another molecule to look at: CCCCCCCCc1ccc(CCC(N)(CO)CO)cc1 [Fingolimod]
A. 80

Q. Same read-out for O[C@@H]1CO[C@H]2[C@@H]1OC[C@@H]2O [Isosorbide] ?
A. 91

Q. Check CC(C)OC(=O)C(C)(C)Oc1ccc(C(=O)c2ccc(Cl)cc2)cc1 [Fenofibrate] too.
A. 92

Q. // query: CCOC(=O)CC(SP(=S)(OC)OC)C(=O)OCC (centres unmarked) [Malathion]
A. 91
